Data provenance: patent USRE48097E1

- Test system: E. cloacae 552
- assayNotes: MIC against E. cloacae 552
- Format: cell-based
- measurementContext: Table 2; E. cloacae 552, Caz S, IMP S; in combination with NXL-104
Overview of reported MIC across a group of compounds:

compound	unitsText	rel	MIC
CC(C)(O/N=C(\C(=O)N[C@@H]1C(=O)N2C(C(=O)[O-])=C(C[n+]3ccccc3)CS[C@H]12)c1csc(N)n1)C(=O)O [CAZ, ceftazidime, reference compound]	µg/mL	=	0.25
CC(C)(O/N=C(\C(=O)N[C@@H]1C(=O)N2C(C(=O)[O-])=C(C[n+]3ccc4c(ccn4Cc4cc(C(=N)N)cs4)c3)CS[C@H]12)c1csc(N)n1)C(=O)O [Example 5]	µg/mL	≤	0.06
CC(C)(O/N=C(\C(=O)N[C@@H]1C(=O)N2C(C(=O)[O-])=C(C[n+]3ccc4c(ccn4Cc4cc(C(=N)N)co4)c3)CS[C@H]12)c1csc(N)n1)C(=O)O [Example 6]	µg/mL	=	0.25
CC(C)(O/N=C(\C(=O)N[C@@H]1C(=O)N2C(C(=O)[O-])=C(C[n+]3ccc4n3CCN4Cc3ccc(C(=N)N)cc3)CS[C@H]12)c1csc(N)n1)C(=O)O [Example 2]	µg/mL	=	0.12
